The values you see were collected from patent US20230150924A1.

system: KAI1 promoter; assay: KAI1 promoter luciferase reporter assay in transfected Caco2 cells; type: cell-based, human; conditions: Homo sapiens, Caco-2, 16 h, 1 μM compound, 16 hours, transfected Caco2 cells, luciferase activity relative to DMSO control (=1); read-out: Relative KAI promoter activity
Can you tell me fold induction at 1 µM for the items I'm about to list?
Kindly provide the number alone.

Ask: Query (molecule): CCN(C)Cc1cccc(C(=O)NCC(=O)c2cccc(OC)c2)c1 ; field requested: fold induction at 1 µM
Reply: 2.06

Ask: Any idea what its fold induction at 1 µM is? The molecule is C#CN(C)Cc1cccc(C(=O)NCC(=O)c2ccccc2)c1
Reply: 2.37

Ask: Item O=C(CNS(=O)(=O)Cc1ccccc1)c1ccc(N2CCOCC2)cc1 has what recorded fold induction at 1 µM?
Reply: 1.07

Ask: Suppose we examine the molecule O=C(COc1ccccc1C(=O)NCC(=O)c1ccccc1)Nc1cccc(Br)c1 ; what fold induction at 1 µM value has been reported?
Reply: 1.35

Ask: Which fold induction at 1 µM is reported for this molecule? COc1cccc(C(=O)CNC(=O)c2cccc(CN3CCN(c4ccccc4OC)CC3)c2)c1
Reply: 1.47

Ask: Item under review: CCC(=O)NCC(=O)c1ccc(N(C)C)cc1 . Reported fold induction at 1 µM?
Reply: 1.71

Ask: Recorded fold induction at 1 µM of O=C(CNC(=O)c1ccc(F)c(F)c1)c1ccccc1 , please.
Reply: 1.28

Ask: Form field: reported fold induction at 1 µM of Cc1ccc(S(=O)(=O)NCC(=O)c2ccccc2)cc1
Reply: 1.31

Ask: May I ask what fold induction at 1 µM has been recorded for Cc1ccccc1C(=O)NCC(=O)c1ccc(N(C)C)cc1 ?
Reply: 2.23

* * *

Record form. Attribute: fold induction at 1 µM. Fill in for each entry.
system: KAI1 promoter; experiment: KAI1 promoter luciferase reporter assay in transfected Caco2 cells; type: cell-based, human; conditions: Homo sapiens, Caco-2, 16 h, 1 μM compound, 16 hours, transfected Caco2 cells, luciferase activity relative to DMSO control (=1); read-out: Relative KAI promoter activity
Provide a numeric answer; units are not to be included.

Ask: What fold induction at 1 µM value was documented for this compound, CS(=O)(=O)N1CCC(Oc2ccccc2C(=O)NCC(=O)c2ccccc2)CC1 [Example 183] ?
Reply: 0.96

Ask: For the compound shown here, O=C(COc1ccccc1C(=O)NCC(=O)c1ccccc1)NCc1cccc(F)c1 [Example 205] , give the reported fold induction at 1 µM.
Reply: 1.1

Ask: // returns reported fold induction at 1 µM for input COc1cccc(C(=O)CNC(=O)c2cccc(CN3CCN(C(=O)OC(C)(C)C)CC3)c2)c1 [Example 289]
Reply: 1.61

Ask: Could you share which fold induction at 1 µM value was measured for Cc1ccc(S(=O)(=O)N2CCC(Oc3ccccc3C(=O)NCC(=O)c3ccccc3)CC2)cc1 [Example 185] ?
Reply: 1.12

Ask: Recorded fold induction at 1 µM of CCCCN(CCO)Cc1cccc(C(=O)NCC(=O)c2cccc(OC)c2)c1 [Example 288] , please.
Reply: 1.73

Ask: Which fold induction at 1 µM is reported for this compound? CCCCN(CCO)Cc1cccc(C(=O)NCC(=O)c2ccccc2)c1 [Example 244]
Reply: 1.51

Ask: Field request: fold induction at 1 µM | item: COc1cc(OC)cc(C(=O)NCC(=O)c2ccc(Cl)cc2)c1 [Example 85]
Reply: 0.96

Ask: Field request: fold induction at 1 µM | item: O=C(CNC(=O)c1ccccc1OC1CCN(C(=O)c2cccs2)CC1)c1ccccc1 [Example 168]
Reply: 1.05

Ask: Name the reported fold induction at 1 µM value associated with the compound O=C(CNC(=O)c1cc(C(F)(F)F)cc(C(F)(F)F)c1)c1ccccc1 [Example 29]
Reply: 0.9

Ask: Form field: reported fold induction at 1 µM of O=C(CNC(=O)c1ccccc1OC1CCN(C(=O)c2cc(C(F)(F)F)cc(C(F)(F)F)c2)CC1)c1ccccc1 [Example 190]
Reply: 0.83

Ask: Request the reported fold induction at 1 µM associated with CN(C)c1ccc(C(=O)CNC(=O)c2ccccc2F)cc1 [Example 90]
Reply: 1.88

Ask: Requested field: fold induction at 1 µM. Item: CN(C)c1ccc(C(=O)CNS(=O)(=O)Cc2ccccc2)cc1 [Example 110]
Reply: 1.49

Ask: What value of fold induction at 1 µM has been reported for the following compound? CN(C)C(=O)N1CCC(Oc2ccccc2C(=O)NCC(=O)c2ccccc2)CC1 [Example 180]
Reply: 1.09

Ask: fold induction at 1 µM lookup needed for CN(C)c1ccc(C(=O)CNC(=O)c2cc(Cl)cc(Cl)c2)cc1 [Example 117] , thanks.
Reply: 1.32

Ask: fold induction at 1 µM lookup needed for O=C(CNC(=O)c1ccc(OC(F)(F)F)cc1)c1ccc(Cl)cc1 [Example 81] , thanks.
Reply: 0.8

Ask: Which fold induction at 1 µM is reported for this compound? O=C(CNC(=O)C1CCC1)c1ccc(Cl)cc1 [Example 57]
Reply: 0.94

Ask: Need fold induction at 1 µM, item O=C(CNC(=O)c1ccccc1CN1CCOCC1)c1ccccc1 [Example 304]
Reply: 1.24

Ask: What does the record list as fold induction at 1 µM for O=C(CNC(=O)c1ccccc1OC(F)(F)F)c1ccccc1 [Example 41] ?
Reply: 1.19
